The reported measurements were obtained from patent US12351571B2.

Biological target: dephosphorylated FGFR2 (Homo sapiens (Human), UniProt P21802)
Sequence (P21802 22-821): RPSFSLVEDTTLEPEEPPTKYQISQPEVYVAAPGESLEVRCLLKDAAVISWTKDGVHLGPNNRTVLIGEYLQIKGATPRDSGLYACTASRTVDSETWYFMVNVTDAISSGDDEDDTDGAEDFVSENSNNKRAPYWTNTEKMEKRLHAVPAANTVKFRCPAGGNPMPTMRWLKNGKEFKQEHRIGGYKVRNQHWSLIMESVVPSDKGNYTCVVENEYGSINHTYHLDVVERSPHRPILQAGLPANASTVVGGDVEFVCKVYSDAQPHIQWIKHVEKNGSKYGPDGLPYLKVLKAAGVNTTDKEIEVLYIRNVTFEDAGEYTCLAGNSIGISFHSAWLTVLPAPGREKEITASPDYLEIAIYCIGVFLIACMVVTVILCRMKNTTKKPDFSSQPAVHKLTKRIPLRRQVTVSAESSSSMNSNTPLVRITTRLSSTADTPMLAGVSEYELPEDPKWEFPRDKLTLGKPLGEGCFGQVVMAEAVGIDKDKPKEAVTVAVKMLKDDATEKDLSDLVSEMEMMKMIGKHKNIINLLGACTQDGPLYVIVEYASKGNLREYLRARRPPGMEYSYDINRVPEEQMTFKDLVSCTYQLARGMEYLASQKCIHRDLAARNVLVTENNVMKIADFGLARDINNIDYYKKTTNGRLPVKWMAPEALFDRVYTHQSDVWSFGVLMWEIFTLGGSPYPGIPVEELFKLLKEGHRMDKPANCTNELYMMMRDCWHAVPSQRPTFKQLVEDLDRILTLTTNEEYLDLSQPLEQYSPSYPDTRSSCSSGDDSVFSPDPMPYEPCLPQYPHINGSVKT
Measured Quantity: pIC50
Keep it numeric: pIC50 is minus log10 of the concentration in mol/L.

The compound COc1cc(Nc2ccc3ncc(-c4cnc(N5CCN(C(=O)C6(F)CN(C(=O)/C=C/CN(C)C)C6)CC5)cc4C)nc3c2)cc(OC)c1 [Example 14] , when measured on dephosphorylated FGFR2 (Homo sapiens (Human), UniProt P21802), yielded pIC50 of 6.54

The compound C#CCN(c1cc(OC)cc(OC)c1)c1ccc2ncc(-c3cnn(C4CCN(C(=O)C5(F)CN(C(=O)/C=C/CN(C)C)C5)CC4)c3)nc2c1 [Example 28] , when measured on dephosphorylated FGFR2 (Homo sapiens (Human), UniProt P21802), yielded pIC50 of 8.52

The compound C=CC(=O)N1CC(CN2CCC(n3cc(-c4cnc5ccc(Nc6cc(OC)cc(OC)c6)cc5n4)cn3)CC2)C1 [Example 30] , when measured on dephosphorylated FGFR2 (Homo sapiens (Human), UniProt P21802), yielded pIC50 of 8.30

The compound C=CC(=O)N1CC(O)(C(=O)N2CCC(n3cc(-c4cnc5ccc(Nc6cc(OC)cc(OC)c6)cc5n4)cn3)CC2)C1 [Example 26] , when measured on dephosphorylated FGFR2 (Homo sapiens (Human), UniProt P21802), yielded pIC50 of 8.30

The compound COc1cc(Nc2ccc3ncc(-c4cn(C5CCN(C(=O)C6(F)CN(C(=O)/C=C/CN(C)C)C6)CC5)nc4C)nc3c2)cc(OC)c1 [Example 22] , when measured on dephosphorylated FGFR2 (Homo sapiens (Human), UniProt P21802), yielded pIC50 of 7.72
